- Tested on: HEK293 cells
- protocol_notes: MTT cell viability assay, HEK293
- Format: cell-based, human
- particulars: Homo sapiens, HEK293, IC50 ± SD
pIC50: −log10 of the molar value.
As shown below, each of these compounds has a reported pIC50 value.

Check out these entries, answers already filled in.
OC1CCCc2c(-c3ccccc3)cc(Cl)nc21 (stereo not drawn) ... < 4.30
O=c1cc(-c2ccccc2)c2c([nH]1)CCCC2 ... < 4.30
O=C(Nc1ccc(F)cc1)OC1CCCc2c(-c3ccccc3)cc(Cl)nc21 (stereo not drawn) [Compound 18c] ... < 4.30

The compound listed as COc1cc(-c2ccccc2)c2c(n1)C(O)CCC2 (stereo not drawn) has a reported pIC50 of < 4.30

====

measurement_type: melting point

Sample answers from the record:
O=C1CCCc2c(-c3ccccc3)cc(=O)[nH]c21 ... 182 to 184 °C
O=C1CCCc2c(-c3ccccc3)cc(Cl)nc21 ... 135 to 137 °C
O=c1cc(-c2ccccc2)c2c([nH]1)C(O)CCC2 (stereo not shown) ... 104 to 106 °C

Next, consider the following compound.
Briefly, melting point measured for O=C(Nc1ccc(F)cc1)OC1CCCc2c(-c3ccccc3)cc(Cl)nc21 (stereo not shown) [Compound 18c] : 113 to 115 °C

====

measurement_type: melting point

Solved cases (3 shown):
COc1cc(-c2ccccc2)c2c(n1)C(OC(=O)Nc1ccc([N+](=O)[O-])cc1)CCC2 (stereo not drawn) [Compound 19b] ... 183 to 185 °C
COc1cc(-c2ccccc2)c2c(n1)C(=O)CCC2 ... 127 to 129 °C
COc1cc(-c2ccccc2)c2c(n1)C(OC(=O)Nc1ccc(F)cc1)CCC2 (stereo not drawn) [Compound 19c] ... 125 to 127 °C

Recorded melting point (compound OC1CCCc2c(-c3ccccc3)cc(Cl)nc21 (stereo not drawn) ): 88 to 90 °C

Measured melting point of O=C(Nc1ccc([N+](=O)[O-])cc1)OC1CCCc2c(-c3ccccc3)cc(=O)[nH]c21 (stereo not drawn) [Compound 20b] : 225 to 227 °C

According to the records, this compound O=C(Nc1ccccc1)OC1CCCc2c(-c3ccccc3)cc(Cl)nc21 (stereo not drawn) [Compound 18a] displays melting point of 148 to 150 °C

Entry under test: COc1cc(-c2ccccc2)c2c(n1)C(OC(=O)Nc1ccc(Cl)cc1)CCC2 (stereo not drawn) [Compound 19e] . Its melting point was 144 to 146 °C

Entry COc1cc(-c2ccccc2)c2c(n1)C(O)CCC2 (stereo not drawn) — recorded melting point = 61 to 63 °C

Entry O=C(Nc1ccccc1)OC1CCCc2c(-c3ccccc3)cc(=O)[nH]c21 (stereo not drawn) [Compound 20a] ; melting point = 144 to 146 °C

====

- Tested on: hMLH1-proficient (MMR+) RKO cells
- protocol_notes: MTT cell viability assay, hMLH1-proficient (MMR+) RKO
- Assay type: cell-based
- particulars: Homo sapiens, mean ± SD
measurement_type: IC50 (µM)
Form entry: value (µM) — number only.

Recorded result, O=C(Nc1cccc(F)c1)OC1CCCc2c(-c3ccccc3)cc(=O)[nH]c21 (stereo not shown) [Compound 20d] , IC50: 4.78

====

// values below are reported pIC50
- System: MCF-7 cells
- protocol_notes: MTT cell viability assay, MCF-7
- Assay type: cell-based, human
- particulars: Homo sapiens, MCF7, 72 h, IC50 ± SD
pIC50: −log10 of the molar value.

# count of solved cases: 4
O=c1cc(-c2ccccc2)c2c([nH]1)CCCC2 ... < 4.30
COc1cc(-c2ccccc2)c2c(n1)C(OC(=O)Nc1ccccc1)CCC2 (centres unmarked) [Compound 19a] ... < 4.30
COc1cc(-c2ccccc2)c2c(n1)C(O)CCC2 (centres unmarked) ... < 4.30
O=C(Nc1ccc(Cl)cc1)OC1CCCc2c(-c3ccccc3)cc(Cl)nc21 (centres unmarked) [Compound 18e] ... < 4.30

molecule COc1cc(-c2ccccc2)c2c(n1)C(=O)CCC2 , pIC50 observed: < 4.30

====

- System: MCF-7 cells
- protocol_notes: MTT cell viability assay, MCF-7
- Format: cell-based, human
- particulars: Homo sapiens, MCF7, 72 h, IC50 ± SD
This section presents molecules with their documented IC50 values.

Record O=C(Nc1cccc(F)c1)OC1CCCc2c(-c3ccccc3)cc(=O)[nH]c21 (centres unmarked) [Compound 20d] , field IC50: > 50 µM
